Biological target: Carbonic anhydrase 15 (Mus musculus)
Sequence (Q99N23 whole entry): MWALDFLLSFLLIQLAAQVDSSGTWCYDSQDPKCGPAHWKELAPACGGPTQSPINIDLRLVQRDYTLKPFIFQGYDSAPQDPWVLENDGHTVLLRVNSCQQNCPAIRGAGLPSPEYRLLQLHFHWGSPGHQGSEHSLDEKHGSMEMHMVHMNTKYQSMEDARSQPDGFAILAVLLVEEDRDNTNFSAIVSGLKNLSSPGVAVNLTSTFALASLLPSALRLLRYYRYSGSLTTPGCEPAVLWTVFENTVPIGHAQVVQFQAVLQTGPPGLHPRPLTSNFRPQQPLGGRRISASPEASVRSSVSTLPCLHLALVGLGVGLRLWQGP
readout_type: Ki (µM)
Give bare numbers, in µM.

Ask: I would be grateful if you could share the reported Ki for NS(N)(=O)=O [SULFAMIDE] .
Result: 37.4
